# Test system: L1210 leukemia ip in BDF1 mice, survival T/C
# METHOD_SUMMARY: NCI In Vivo Anticancer Drug Screen. Data for tumor model L1210 Leukemia (intraperitoneal) in B6D2F1 (BDF1) mice
# PARTICULARS: endpoint: mean survival time; dose: 200.0 mg/kg/injection; schedule: Q04DX003 (ip); vehicle: saline; higher = longer survival
Toxic doses and inconclusive results are not listed.
QUANTITY_MEASURED: T/C

COMPOUND	REPORTED_MEASUREMENT
O=C(C(Br)C(Br)c1ccccc1)N1CCOCC1 (stereo unspecified)	100 % of control
NOCCCCCCON	97 % of control
c1ccc2cc3nc4ccccc4nc3cc2c1	101 % of control
CC(C)C1C(=O)N2CCCC2C2(O)OC(NC(=O)C3C=C4c5cccc6[nH]cc(c56)CC4N(C)C3)(C(C)C)C(=O)N12 (stereo unspecified)	108 % of control
OC1C=NC=N1 (stereo unspecified)	109 % of control
O=C1CCCN1C1=CC2=C(CCc3ccccc32)S(=O)(=O)O1	94 % of control
